test: label from the status in PepcDB records
attributeMeasured: protein production

1. MMHHALHIKNGIVIDPKNGVKAEKMDIFVKNGKIVEESEVKGEDVKVIDANNKLVVAGGVDMHAHIAGSKINTGRTMRPEEMRVVRNIAGKFRAAVGRVLEHHHHHH : not failed
2. MKITLEHWFYNWLFEYRIKDLKPKSFERYESIYRNYIKDTDLGNVKLKYLRVSHIQKYYNRLLDSNKSIPTIRQINTKLKTCLSEAEKQGLIQRNYCTMVNIPLEHHHHHH : not failed
3. MSFRAFLPAAMLVTVAGFWLGASTPGVAQYCEGTVHGLSGRYNLATGSGFLAVRTRPNSSSRMIGQLFNGDHVEIFDRRGNWYQVEIGGSTGWANARWLRNDCRY : failed
4. MADDDVLFEDVYELCEVIGKGPFSVVRRCINRETGQQFAVKIVDVAKFTSSPGLSTEDLKREASICHMLKHPHIVELLETYSSDGMLYMVFEFMDGADLCFEIVKRADAGFVYSEAVASHYMRQILEALRYCHDNNIIHRDVKPHCVLLASKENSAPVKLGGFGVAIQLGESGLVAGGRVGTPHFMAPEVVKREPYGKPVDVWGCGVILFILLSGCLPFYGTKERLFEGIIKGKYKMNPRQWSHISESAKDLVRRMLMLDPAERITVYEALNHPWLKERDRYAYKIHLPETVEQLRKFNARRKLKGAVLAAVSSHKFNSFYGDPPEELPDFSEDPTSS : failed

---

experiment: label from the status in PepcDB records
attributeMeasured: protein production

# example entries with known answers
1) MDKLKVAELFAGVGGFRLGLENTKEKIFDVTWANQWEPSKKIQHAFDCYNSRFITGEHVNKDIALISDEEIANTKADMVVGGFPCQDYSVARSLSGELGIQGKKGVLFWQIIRFIQNTYPKYLLLENVDRLLKSPSSQRGRDFGVMLSTLNELGYNVEWRVINAADYGNAQRRRRVFIFGYKQDLEHHHHHH : not failed
2) YTISEVVAFTGLTAHTLRWYERIGLMPHIDRSHTGQRRYSNRDLDWLAFVGKLRLTGMPVADMVRYAEMVREGDGTYTQRYEILESTRRDVLARIAELQDTLAVLDHKISFYADAGRALTSERSR : failed
3) MSNCWKNVLVKPACTLLDALEIINDEALRVVLVVDESDSLLGVVTDGDIRRGLLRNLPLTADIAQVMNTTPYTAAIDTPRDELIAIMESNDILSIPLLDNGKVVGLETLHHALSTPVYENPVFIMAGGFGTRLRPLTDHCPKPMLKIGDKPILETVIRNFIKAGFINFYISTHYMPELIHQHFGDGSTLGVKITYVHEQSPLGTGGALGLLPKELPKDLPLIMMNGDVLTKVDFQRLLEFHTEHDADATMCVREYDYQIPYGVIKGEGNRITSMVEKPIQRFFVNAGIYVVSPVVIQSVPENHHIDMPTLLEQHMNKRNNVLMFPIHEYWLDIGRMDDFNRAQTDIYTLGL : failed
4) MIAVISMSGHVWSQQVPLWSIIIRTIHLIGLTLWLGSLVYLICYAIKVKINQLTSVRRMLLKVNIIAVFMLVFTGILMAIDETNTLTLWNNVSAWSIYLVIKIAGIITMMLLGFYQTMRALRQRQQVHRFALMTELLIGMILIFAGIMMSK : failed
5) MQDIVRKTIDNLNRNHMAGYYTQSIQQLHELLYRLMPEGQTVGCGDSVTLEQSGVYEYVRNHSYNFLDKYRTGLNREEKREIYLQNFRADTFLTGINAVTIDGKLFNIDGNGSRVAPIIYGPKQVIAVVGTNKIVKSVDDAIWRTRQIAAPLDARRLAKETPCVKLAKCIDCHHSQRICNDFVLITGQFEKGRIKVIFIEGDYGY : failed
6) MNVTLGTGDGADFWVFGFGSLIWKPDIPFEECRDAFITGWRRRFWQHSTDHRGTESYPGRVATLVLAEQPGERCYGRAYRVDNEAAADVLAYLDEREKQGYSRLALPVYDARSAEQITKHALVYIAREDNPHFVRAADERQIPVLCRIIARARGPSGDNATYLFRLKESLDEIGVRDEHVDELVFGVRAELEALASACSESTPHGVAVAPTAASFDAVPASSDDLR : failed

Shifting focus to the sequence that follows.
In: # get_value(readout='protein production', item= VSDMNGLGFKPFDLVIPFAVRKGEITGEVHMPSGKTATPEIVDNKDGTVTVRYAPTEVGLHEMHIKYMGSHIPESPLQFYVNYPNSGS )
Out: not failed

---

test: label from the status in PepcDB records
attributeMeasured: protein production

# example entries with known answers
1) DQDTLVQRAEHIPAGKRTPMCAHCNQVIRGPFLVALGKSWHPEEFNCAHCKNTMAYIGFVEEKGALYCELCYEKFFA : not failed
2) MGSSARFRGRTDTMLLTRFNPENGTITVLSIPRDTRVEIPGYGTSKINAANVYGDVELTVQVVSQTLNYTPIDRYIRINTDAFRELVDLVGGVEVNVPKRMVYTDHTQKLYIDLQPGLQTLNGEQAEGFVRFRYDELGDIGRAQRQQLLIKALQEKLANPVMLTQLPKLYSVLQKYVDTDLTFAELMAIAQFSLRIQPDNLHLILLPGHFSGDGYGTSYWLPDYDRIDRVVAEHFSDRPSKLVDQRGSETGTLRIALQNASGSSGAAQDMADFLARHGYTNVLISEDWYQQTSETEIVAQQGDLGAAQVIRSVLGMGRVSANSTGVLSSDITIRIGRDWAAVLHLEHHHHHH : failed
3) MSLVNNFTVKKVRSSNLELLRLLSMFFVLVVHADFQALGMPDRTEMTILPLFSVFRIIIEAFAIVCVNSFVLLSGWFGINFHIKSLCNLLFQCAFFLIGIYTFTILIGIEPLSISGIKRCLMLTNNVWFVKCYLGMFIMAPILNAFVEKTDKRTFSTVLLSFFIFQTIYGWFSNGAPYFEKGYSAFSFMGLYLLARYVRIYQPSYTQWSKSKNLLMYISLSTFTALMLIITCYFDKVGYFCMFWTYTSPLVIAGALYLLLFFNRFAFQNKGINWIAASCFAVYLFHFFIWEYFMKPHIQQLAVTYNGISCLLVITGLLLTFFTAAILIDKIRLYIWNHFVSKYIS : failed
4) MTHNIHDNISQWMKSNEETPIVMSSRIRLARNLENHVHPLMYATENDGFRVINEVQDALPNFELMRLDQMDQQSKMKMVAKHLISPELIKQPAAAVLVNDDESLSVMINEEDHIRIQAMGTDTTLQALYNQASSIDDELDRSLDISYDEQLGYLTTCPTNIGTGMRASVMLHLPGLSIMKRMTRIAQTINRFGYTIRGIYGEGSQVYGHTYQVSNQLTLGKSELEIIETLTEVVNQIIHEEKQIRQKLDTYNQLETQDRVFRSLGILQNCRMITMEEASYRLSEVKLGIDLNYIELQNFKFNELMVAIQSPFLLDEEDDKSVKEKRADILREHIK : failed

Please give protein production, item by item, for the list that follows.
1. MSGVILGRYWGGLSQLIYVIIGAAGVPWFADMSGGPEVLLGATGGYLLGFILAALLLGHFVDRHIRARKFTPMLGLMTIANFGLIYIPGLVVLGLWSLKTQGTLPGPWELLVMGLLPFIPGDILKITGAAALTRAITPKEPYGEEIDIQKAEGWRVP
2. DMLLVDEMKRGMAQGNASGKHLIILHTKGSHFNYTQRYPRSFAQWKPECVGVDNKCSKAELINSYDNSVTYVDHFIVSVLDQLRDKKAIVFYAADHGESINEREHLHGTPRKMAPPEQFRVPMMVWMSDKYLENPDHAAAFAHLQQQAAMKVPRRHVELYDTIMGCLGYTSPDGGINENNNWCRWKK
3. MTEQHSHQFERGTDGPKVILVGVDGSDSSLHAAAYAAGLARRQHALLAVVYVQPVMAAGAALGVPVADTTDEIAADLVQYIRDATERVKDIFEVRWEFHTFRGDPYNGLVTAADELKADAVVVGASEQAGHRIVGSVAVRLVKAGRWPVTVVP

Out:
failed
failed
not failed

---

assay: label from the status in PepcDB records
attributeMeasured: protein production

1. MRTISFFNNKGGVGKTTLSTNVAHYFALQGKRVLYVDCDPQCNATQLMLTEEQTESIYLDGLNDEVAERNSLAKTVYAIFVPLREGESQIAAEITPMRSERFGVDVLPGHPALSQIEDLMSDSWQSALGRQTGPFRRIHWAGQLAHAMERDDRYDVIFFDVGPSLGPFNRTVLLGCDAFVTPTATDLFSFHAFGNLARWFDAWVTQ : failed
2. MEPQKESNQNYLPYPPHPQQDHDEIDLRELFKALWEGKWIVIATTFVIAVSAVLYALSLPNIYKADALLAPAESSNGGGLSKMAGQLGGLAALAGVNLGASESSQTDLAVQVMRSRQFINTFINKHDLLVPLMAGKDWDLSNNKLILDEELYNPNTGEWLRDAKGLRGATPTAQEAFEVFSKEVLSINQDKESGLYTVSMKNYSPYIAQQWVNWLIEDINKAMRERTIAETSQNLAYLNTQLQKTAVTDMQSTFYKLIEEQTKSLMLAEVQEEFVFKVVDPAVVPELKDSPKRVLICVLGILLGVMLGVAIVLIRIVFRKEDTENLEPRT : failed
